Biological target: recombinant Plk1 protein (Homo sapiens)
Construct: histidine tag (N)
Sequence (P53350 whole entry): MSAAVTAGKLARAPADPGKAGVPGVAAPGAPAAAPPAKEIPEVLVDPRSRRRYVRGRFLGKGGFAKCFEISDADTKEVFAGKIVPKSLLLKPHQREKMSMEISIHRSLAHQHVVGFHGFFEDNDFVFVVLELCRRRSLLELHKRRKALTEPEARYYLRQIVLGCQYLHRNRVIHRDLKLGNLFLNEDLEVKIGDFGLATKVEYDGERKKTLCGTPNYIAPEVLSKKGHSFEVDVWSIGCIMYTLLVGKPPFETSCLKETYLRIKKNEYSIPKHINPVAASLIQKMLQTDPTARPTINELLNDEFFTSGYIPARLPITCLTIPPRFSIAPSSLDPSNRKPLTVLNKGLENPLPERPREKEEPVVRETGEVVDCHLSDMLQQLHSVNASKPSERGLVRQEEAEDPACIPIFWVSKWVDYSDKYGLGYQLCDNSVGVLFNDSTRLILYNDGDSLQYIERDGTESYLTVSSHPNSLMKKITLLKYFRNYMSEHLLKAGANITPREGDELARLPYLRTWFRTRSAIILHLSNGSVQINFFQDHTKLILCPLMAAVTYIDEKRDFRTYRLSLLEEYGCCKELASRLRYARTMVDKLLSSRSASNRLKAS
Assay: Plk1 kinase activity inhibition assay (33P-ATP, alpha casein substrate, flash plates)
Settings: enzymatic assay, 100 nM Li-ATP, 80 minutes at 30° C.
Collected IC50 values appear next to each entry.

Reference set (10 entries):
CC(Oc1cc(-n2cnc3ccncc32)sc1C(N)=O)c1ccccc1Cl (stereo not drawn) ... < 10 nM
C[C@@H](Oc1cc(-n2cnc3cnc(CO)cc32)sc1C(N)=O)c1ccccc1C(F)(F)F ... < 10 nM
C[C@@H](Oc1cc(-n2cnc3cnc(CN4CCC(C(=O)N5CCN(C)CC5)CC4)cc32)sc1C(N)=O)c1ccccc1C(F)(F)F ... 10 to 100 nM
CCC(Oc1cc(-n2cnc3cnc(CN4CCN(C5CC5)CC4)cc32)sc1C(N)=O)c1ccccc1Cl (stereo not drawn) ... 10 to 100 nM
COCCN1CCN(Cc2cc3c(cn2)ncn3-c2cc(O[C@H](C)c3ccccc3C(F)(F)F)c(C(N)=O)s2)CC1 ... < 10 nM
NC(=O)c1sc(-n2cnc3cnccc32)cc1OCc1ccccc1OC(F)F ... < 10 nM
C[C@@H](Oc1cc(-n2cnc3cnc(CN4CCN(C)CC4)cc32)sc1C(N)=O)c1ccccc1Cl ... < 10 nM
C[C@@H](Oc1cc(-n2cnc3cnc(CNCCO)cc32)sc1C(N)=O)c1ccccc1C(F)(F)F ... 10 to 100 nM
NC(=O)c1sc(-n2cnc3ccncc32)cc1OCc1ccccc1OC(F)(F)F ... 10 to 100 nM
CCNCc1cc2ncn(-c3cc(O[C@H](C)c4ccccc4C(F)(F)F)c(C(N)=O)s3)c2cn1 ... 100 to 1000 nM

Lab entry: recombinant Plk1 protein (Homo sapiens) assay, compound C[C@@H](Oc1cc(-n2cnc3cnc(CN4CCN(S(=O)(=O)N(C)C)CC4)cc32)sc1C(N)=O)c1ccccc1C(F)(F)F , IC50 = 10 to 100 nM

The compound C[C@@H](Oc1cc(-n2cnc3cnc(CN4CCC(N(C)C)C4)cc32)sc1C(N)=O)c1ccccc1C(F)(F)F (stereo partly drawn) on recombinant Plk1 protein (Homo sapiens): IC50 was < 10 nM

// IC50 (recombinant Plk1 protein (Homo sapiens)) for CC(Oc1cc(-n2cnc3cnc(CO)cc32)sc1C(N)=O)c1ccc(C#N)cc1Cl (stereo not drawn) = < 10 nM

recombinant Plk1 protein (Homo sapiens) assay, compound CNCc1cc2ncn(-c3cc(O[C@H](C)c4ccccc4C(F)(F)F)c(C(N)=O)s3)c2cn1 , recorded IC50 = 10 to 100 nM

The compound C[C@@H](Oc1cc(-n2cnc3cnc(CN4CCN(C)CC4)cc32)sc1C(N)=O)c1ccccc1C(F)(F)F , tested on recombinant Plk1 protein (Homo sapiens), showed IC50 of < 10 nM
